The origin of these recorded values is patent US20120165304A1.

Molecular target: human 5-HT2C receptor (Homo sapiens, UniProt P28335, I156V/I160V/N158S)
Sequence (P28335 33-458 I156V/N158S/I160V limits assumed): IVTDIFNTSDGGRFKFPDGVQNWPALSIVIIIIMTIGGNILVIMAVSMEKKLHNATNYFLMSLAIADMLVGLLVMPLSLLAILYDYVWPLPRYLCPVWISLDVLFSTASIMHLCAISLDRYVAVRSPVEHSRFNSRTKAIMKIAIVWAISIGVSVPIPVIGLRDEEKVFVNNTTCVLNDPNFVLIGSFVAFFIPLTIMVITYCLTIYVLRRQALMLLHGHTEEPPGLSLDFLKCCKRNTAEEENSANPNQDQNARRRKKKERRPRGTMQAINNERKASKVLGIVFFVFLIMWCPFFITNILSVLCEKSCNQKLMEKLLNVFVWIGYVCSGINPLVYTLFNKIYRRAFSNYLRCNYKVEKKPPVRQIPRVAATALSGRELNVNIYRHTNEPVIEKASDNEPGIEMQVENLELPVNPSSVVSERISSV
Assay: cell-based
pEC50: −log10 of the molar value.
pEC50 vs 7: at or above is TRUE, below is FALSE.

Examples with answers:
SMILES TEXT	EXPERIMENTAL SYSTEM	CLASS
O=C(C1CN(c2c3c(nc4ccnn24)CCNCC3)C1)N1CCCCC1	human 5-HT2C receptor (Homo sapiens, UniProt P28335, I156V/I160V/N158S)	FALSE
Fc1ccc(OC2CN(c3c4c(nc5ccnn35)CCNCC4)C2)cc1	human 5-HT2C receptor (Homo sapiens, UniProt P28335, I156V/I160V/N158S)	TRUE
CN1CCc2nc3ccnn3c(N3CC(C(=O)N4CCC5(CCC5)C4)C3)c2CC1	human 5-HT2C receptor (Homo sapiens, UniProt P28335, I156V/I160V/N158S)	FALSE
Fc1cccc(F)c1OC1CN(c2c3c(nc4ccnn24)CCNCC3)C1	human 5-HT2C receptor (Homo sapiens, UniProt P28335, I156V/I160V/N158S)	TRUE

Data request: Item CC(C)CC(=O)N1CCN(C(=O)C2CN(c3c4c(nc5ccnn35)CCNCC4)C2)CC1 with pEC50 of 7 or above?
Data returned: TRUE

Data request: Please tell me: is the compound O=C(C1CN(c2c3c(nc4ccnn24)CCNCC3)C1)N1CCC(c2ccc(F)cc2F)CC1 at or over 7 in terms of pEC50?
Data returned: TRUE
